Origin of values: PubChem BioAssay (Tox21)

testDetails: qHTS assay for identifying genotoxic compounds that show differential cytotoxicity against isogenic chicken DT40 cell lines with known DNA damage response pathways - wild type cell line (AID 743012); further: nearly all actives have a fitted effect of over 60% in size
testParameters: DT40 wild type chicken cells viability, CellTiter-Glo, 40 h; series mostly up to 68.4 µM
Results filed as inconclusive are left out. Calls of active or inactive are those of the source. The call rests on the fitted dose curve; in most records, active means well fitted cell-killing curve with a large enough effect in the repeat runs; inconclusive means weak or mixed curves, or effect the other way; inactive means no such curve, though single readings can be large or run the other way.
Give one outcome, nothing more. List: active, inactive

INSERT INTO results (compound, assignedlabel) VALUES
  ('CC(C)(C)c1ccc(OP(=O)(Oc2ccccc2)Oc2ccccc2)cc1', 'active');

Problem: Short answer needed: outcome of this test for CCC(C)Nc1c([N+](=O)[O-])cc(C(C)(C)C)cc1[N+](=O)[O-] (stereo not drawn) ?
Solution: inactive

Problem: Short answer needed: outcome of this test for CC(=O)O.CC(=O)O.CC(=O)O.CC(=O)O.CC(=O)O.CC(=O)O.CC(=O)O.O.O.[Cr].[Cr].[Cr] ?
Solution: inactive

Problem: Short answer needed: outcome of this test for CCOP(=S)(OCC)SC(CCl)N1C(=O)c2ccccc2C1=O (stereo not drawn) ?
Solution: active

Problem: Short answer needed: outcome of this test for [C-]1=CC=CC1.[Cl][Zr+2][Cl].c1cc[cH-]c1 ?
Solution: inactive

Problem: Short answer needed: outcome of this test for CN(C)c1ccc(N)cc1 ?
Solution: active

Problem: Short answer needed: outcome of this test for COc1ccc(Cc2nccc3cc(OC)c(OC)cc23)cc1OC ?
Solution: active

Problem: Short answer needed: outcome of this test for c1ccc2c(c1)cc1ccc3cccc4ccc2c1c34 ?
Solution: inactive

----------
testDetails: qHTS assay to identify small molecule agonists of the NFkB signaling pathway - cell viability counter screen (AID 1159515); further: nearly all actives have a fitted effect of over 55% in size
testParameters: NFkB-bla ME-180 viability, CellTiter-Glo luminescence, 5 h; series mostly up to 61 µM
Source text: National Center for Advancing Translational Sciences [NCATS] NIH Chemical Genomics Center [NCGC] U.S. Environmental Protection Agency [EPA] National Institutes of Environmental Health Sciences [NIEHS] National Toxicology Program [NTP] U.S. Food and Drug Administration [FDA] Transcription factors and their stimulated target gene expression play pivotal roles across many cellular processes including responses to environmental stimuli. […]
Records with an inconclusive call do not appear. The source made the active and inactive calls. Calls come from the whole dose curve.
Give one outcome, nothing more. List: 1 (yes) = active, 0 (no) = inactive

INSERT INTO results (compound, assignedlabel) VALUES
  ('O=C(Nc1ccc(F)cc1F)c1cccnc1Oc1cccc(C(F)(F)F)c1', '0 (no)'),
  ('O=C(O)[C@H](O)[C@@H](O)C(=O)O', '0 (no)'),
  ('CCCCC(CC)COC(=O)OOC(C)(C)C (centres undefined)', '0 (no)'),
  ('CCN(CC)Cc1nccn1-c1ccc([N+](=O)[O-])cc1C(=O)c1ccccc1Cl', '0 (no)'),
  ('COP(=S)(OC)Oc1nc(Cl)c(Cl)cc1Cl', '0 (no)'),
  ('Brc1ccc(Oc2ccc(Br)cc2Br)c(Br)c1', '0 (no)');

Kindly consider the entry below.
Problem: Short answer needed: outcome of this test for Clc1ccc(C(c2ccc(Cl)cc2)C(Cl)Cl)cc1 ?
Solution: 1 (yes)

----------
testDetails: qHTS RealTime-Glo MT Cell Viability Assay in HepG2 cells - 16 hour (AID 1224885); further: nearly all actives have a fitted effect of over 50% in size
testParameters: RealTime-Glo luminescence; series mostly up to 76.8 µM
Text: U.S. Tox21 Program National Center for Advancing Translational Sciences [NCATS] NIH Chemical Genomics Center [NCGC] U.S. Environmental Protection Agency [EPA] National Institutes of Environmental Health Sciences [NIEHS] National Toxicology Program [NTP] U.S. Food and Drug Administration [FDA] Tox21 Assay Overview: Measure of cell viability is critical in the cell-base assay. Analysis of cell viability is necessary for the characterization of cell responses to cytotoxic drugs and environmental stress. […]
Results filed as inconclusive are left out. Active and inactive are the calls of the source. The call rests on the fitted dose curve; in most records, active means well fitted cell-killing curve with a large enough effect in the repeat runs; inconclusive means weak or mixed curves; inactive means flat fitted curve, though single readings scatter.
Give one outcome, nothing more. List: active, inactive

Solved cases (6 shown):
INSERT INTO measurements (compound, assignedlabel) VALUES
  ('CN1C2CCC(C)(C)C1CC(OC(=O)C(O)(c1cccs1)c1cccs1)C2 (stereo not given)', 'inactive'),
  ('O=C(O)CCCCCCNC1c2ccccc2CCc2ccccc21', 'inactive'),
  ('C#CCC1=C(C)C(OC(=O)C2C(C=C(C)C)C2(C)C)CC1=O (stereo not given)', 'inactive'),
  ('CNC(=O)O/N=C(\C)C(C)S(C)(=O)=O (stereo not given)', 'inactive'),
  ('CCC(C)Br (stereo not given)', 'inactive'),
  ('O=C(NC(=O)c1c(F)cccc1F)Nc1ccc(Oc2ccc(C(F)(F)F)cc2Cl)cc1F', 'inactive');

Problem: Short answer needed: outcome of this test for CNC(=O)/C=C(\C)OP(=O)(OC)OC ?
Solution: inactive

Problem: Short answer needed: outcome of this test for N#Cc1ccc(N(CC(N)=O)CC(F)(F)F)cc1C(F)(F)F ?
Solution: inactive

Problem: Short answer needed: outcome of this test for CC(C)[C@@H](Nc1ccc(C(F)(F)F)cc1Cl)C(=O)OC(C#N)c1cccc(Oc2ccccc2)c1 (stereo not given in full) ?
Solution: inactive

Problem: Short answer needed: outcome of this test for C[C@]12C/C(=C/O)C(=O)C[C@@H]1CC[C@@H]1[C@@H]2CC[C@@]2(C)[C@H]1CC[C@]2(C)O ?
Solution: inactive

Problem: Short answer needed: outcome of this test for C=C(C)C(=O)[O][Sn]([CH2]CCC)([CH2]CCC)[CH2]CCC ?
Solution: active

Problem: Short answer needed: outcome of this test for C#CCO ?
Solution: inactive

Problem: Short answer needed: outcome of this test for CC(Cc1ccccc1)N(C)Cc1ccco1 (stereo not given) ?
Solution: inactive

Problem: Short answer needed: outcome of this test for O=c1c2ccccc2c(=O)c2c1cc(Cl)c1[nH]c3c([nH]c12)c(Cl)cc1c(=O)c2ccccc2c(=O)c13 ?
Solution: inactive

Problem: Short answer needed: outcome of this test for CCOP(=O)(OCC)Oc1nc(Cl)c(Cl)cc1Cl ?
Solution: inactive

----------
testDetails: qHTS assay for identifying genotoxic compounds that show differential cytotoxicity against isogenic chicken DT40 cell lines with known DNA damage response pathways - Rad54/Ku70 mutant cell line (AID 743015); further: nearly all actives have a fitted effect of over 60% in size
testParameters: DT40 Rad54/Ku70 mutant viability, CellTiter-Glo, 40 h; series mostly up to 66.8 µM
Inconclusive results are not listed. Activity calls are given as the source filed them. The call rests on the fitted dose curve; in most records, active means well fitted cell-killing curve with a large enough effect in the repeat runs; inconclusive means weak or mixed curves; inactive means no such curve, though single readings can be large or run the other way.
assayEndpoint: outcome

Answered examples (4):
INSERT INTO results (compound, readoutvalue) VALUES
  ('C=CCBr', 'inactive'),
  ('N#Cc1c2ccccc2cc2ccccc12', 'inactive'),
  ('CN1[C@@H]2CC[C@H]1CC(O)C2 (stereo not given in full)', 'inactive'),
  ('Cc1nn(-c2cc(NS(C)(=O)=O)c(Cl)cc2Cl)c(=O)n1C(F)F', 'inactive');

Turning now to a further record.
Problem: Quick one: outcome of Nc1c(Cl)c(Cl)c(Cl)c(Cl)c1Cl ?
Solution: inactive

----------
testDetails: qHTS assay to identify small molecule agonists of the endoplasmic reticulum stress response signaling pathway - cell viability counter screen (AID 1159517); further: nearly all actives have a fitted effect of over 50% in size
testParameters: ESRE-bla HeLa viability, CellTiter-Glo luminescence, 5 h; series mostly up to 61 µM
Inconclusive results are not listed. Calls of active or inactive are those of the source. Calls come from the whole dose curve.
Give one outcome, nothing more. List: active, inactive

Solved cases (5 shown):
INSERT INTO measurements (molecule, assignedlabel) VALUES
  ('Cc1ccc([N+](=O)[O-])[c]2c1[O][Hg]2', 'active'),
  ('CNC(=O)O/N=C(\C)C(C)S(C)(=O)=O (centres undefined)', 'inactive'),
  ('CCCCc1ccccc1', 'inactive'),
  ('COc1ccc(Cc2nccc3cc(OC)c(OC)cc23)cc1OC', 'inactive'),
  ('CN1CCc2cc(Cl)c(O)cc2[C@H]2c3ccccc3CC[C@@H]21', 'inactive');

Problem: Short answer needed: outcome of this test for O=C1C[C@@H]2OCC=C3CN4CC[C@]56c7ccccc7N1[C@H]5[C@H]2[C@H]3C[C@H]46 ?
Solution: inactive

Problem: Short answer needed: outcome of this test for CCN(CC)CCc1c[nH]c2ccccc12 ?
Solution: inactive

Problem: Short answer needed: outcome of this test for C=CC(=O)[O][Sn]([CH2]CCC)([CH2]CCC)[CH2]CCC ?
Solution: active

Problem: Short answer needed: outcome of this test for O=C(N[C@@H]1N=C(c2ccccc2F)c2cccc3c2N(CC3)C1=O)c1cc2ccccc2[nH]1 ?
Solution: inactive

----------
testDetails: qHTS assay to identify small molecule antagonists of the glucocorticoid receptor (GR) signaling pathway - cell viability counter screen (AID 720693); further: nearly all actives have a fitted effect of over 55% in size
testParameters: GR-bla HeLa viability, CellTiter-Glo luminescence, 18 h, with 5 nM dexamethasone present; series mostly up to 58.5 µM
Inconclusive results are not listed. Calls of active or inactive are those of the source. Calls come from the whole dose curve; as a rule, active = well fitted cell-killing curve with a large enough effect in the repeat runs; inconclusive = weak or mixed curves, or effect the other way; inactive = no such curve, though single readings can be large or run the other way.
Give one outcome, nothing more. List: active, inactive

Solved cases (4 shown):
INSERT INTO results (compound, assignedlabel) VALUES
  ('O=S(=O)(O)F', 'inactive'),
  ('NC(=O)C(Cl)Cl', 'inactive'),
  ('CC(=O)C(Cl)C(=O)N(C)C (centres undefined)', 'inactive'),
  ('CSC(C)(C)/C=N/O', 'inactive');

Kindly consider the entry below.
Problem: Short answer needed: outcome of this test for C=CC(=O)[O][Sn]([CH2]CCC)([CH2]CCC)[CH2]CCC ?
Solution: active
